These measurements were taken from BindingDB's records for patent US11066409.

biological target: P2X purinoceptor 7 [R270H] (Homo sapiens, UniProt Q99572, R270H); experiment: Inhibition Assay
Sequence (Q99572 whole entry R270H, looked up): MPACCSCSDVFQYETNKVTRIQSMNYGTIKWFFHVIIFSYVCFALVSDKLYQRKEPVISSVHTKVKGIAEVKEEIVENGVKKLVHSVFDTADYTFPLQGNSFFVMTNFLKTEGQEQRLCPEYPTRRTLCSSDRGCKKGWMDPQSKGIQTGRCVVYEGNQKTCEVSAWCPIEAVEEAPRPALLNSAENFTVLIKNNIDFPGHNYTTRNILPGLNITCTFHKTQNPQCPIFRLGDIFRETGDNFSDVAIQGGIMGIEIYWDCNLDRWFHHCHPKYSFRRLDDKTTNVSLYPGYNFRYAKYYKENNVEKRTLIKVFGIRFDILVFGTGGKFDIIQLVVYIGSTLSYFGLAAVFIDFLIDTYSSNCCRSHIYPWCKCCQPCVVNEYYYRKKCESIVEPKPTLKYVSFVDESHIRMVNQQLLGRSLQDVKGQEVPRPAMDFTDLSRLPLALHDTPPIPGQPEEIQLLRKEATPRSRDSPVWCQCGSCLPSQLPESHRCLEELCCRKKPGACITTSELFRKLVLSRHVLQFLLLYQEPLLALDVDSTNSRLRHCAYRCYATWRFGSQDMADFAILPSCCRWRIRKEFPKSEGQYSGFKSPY
MEASURE: IC50

Example results:
COc1cc(Nc2nc(=O)c(F)c3n2C(c2cc(F)cc(F)c2)CC3)c(C)cc1F (stereo not drawn) [US11066409, Compound I-0099] : < 10 nM
Cc1cc(F)c(CO)cc1NC1=NC(=O)N(C)C2=NCC(c3cc(F)c(F)c(F)c3)N12 (stereo not drawn) [US11066409, Compound I-0168] : 23 nM

Now, please, on to the next compound.
The recorded IC50 for Cc1ccc(OCCO)cc1NC1=NC(=O)N(C)C2=NCC(c3cc(F)c(F)c(F)c3)N12 (stereo not drawn) [US11066409, Compound I-0171] is 19 nM
